Item-by-item account of ED50, plaque reduction, RSV B-1
assay system: F protein of RSV B-1 (respiratory syncytial virus B-1, UniProt O36634 26-574)
Sequence (O36634 26-574): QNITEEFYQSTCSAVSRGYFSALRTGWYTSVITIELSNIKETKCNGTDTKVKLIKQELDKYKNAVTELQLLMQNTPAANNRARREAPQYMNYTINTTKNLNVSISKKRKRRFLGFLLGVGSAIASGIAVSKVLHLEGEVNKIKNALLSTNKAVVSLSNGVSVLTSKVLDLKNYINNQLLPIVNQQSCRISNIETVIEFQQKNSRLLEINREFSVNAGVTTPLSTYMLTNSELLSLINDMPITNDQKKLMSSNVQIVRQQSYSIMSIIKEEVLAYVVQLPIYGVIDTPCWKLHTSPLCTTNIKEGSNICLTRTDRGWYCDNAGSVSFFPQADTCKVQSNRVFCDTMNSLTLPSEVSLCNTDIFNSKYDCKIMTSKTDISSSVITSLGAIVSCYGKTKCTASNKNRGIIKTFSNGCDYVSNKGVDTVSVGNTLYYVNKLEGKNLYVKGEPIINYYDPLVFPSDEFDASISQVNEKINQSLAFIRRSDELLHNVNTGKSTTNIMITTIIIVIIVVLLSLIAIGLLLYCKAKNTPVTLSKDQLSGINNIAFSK
assay overview: cell-based or functional assay
Numeric answer only, unit nM assumed.

Solved entries:
# binder, reading unit, ED50, plaque reduction, RSV B-1
rows = [
    ("IgG form of 14G3 (antibody, V domains shown) VH: QVQLQESGPGLVKPSQTLSLTCTVSGASISSDNHYWSWIRQPPGKGLEWIASIYYTGGTNYNPSLKSRLALSIDTSGDQFSLKLSSVTAADTAVYYCVRGLFFITARPYWYFDLWGRGTLVAVSS VL: DVVMTQTPLSLSVTPGEPASISCRSSQSLLDSDDGNTYLDWYLQKPGQSPQLLIYTLSYRASGVPDRFSGSGSGTDFTLKISRVEADDVGIYYCMQRMEFPFTFGQGTRLDIKR", "nM", 10.7),
    ("IgG form of 17C9 (antibody, V domains shown) VH: QVQLQQWGAGLVRPSETLSLTCAVYGDSFNDYFWTWIRQTPGKGLEWIGEISHSGSTNYSPSLKSRVTISVDTSKNQFSLKLSAVTAADTTVYFCARGVRSRPPPSYRGSGSPPYYHYGMDVWGQGTTVTVSS VL: EIVLTQSPSTLSASVGDRVTITCRASQNINTWLAWYQQKPGKAPKLLIYAASFLQSGVPSRFSGSGSGTDFTLTISNLQPEDFATYFCQQANSFPRTFGQGTKVEVKR", "nM", 0.329),
    ("Motavizumab IgG (antibody, V domains shown) VH: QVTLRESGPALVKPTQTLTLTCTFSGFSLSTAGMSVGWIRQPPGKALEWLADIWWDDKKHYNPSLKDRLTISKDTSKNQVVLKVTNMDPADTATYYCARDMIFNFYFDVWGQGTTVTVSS VL: DIQMTQSPSTLSASVGDRVTITCSASSRVGYMHWYQQKPGKAPKLLIYDTSKLASGVPSRFSGSGSGTEFTLTISSLQPDDFATYYCFQGSGYPFTFGGGTKVEIK", "nM", 0.833),
]

What the record says about IgG form of 30D8 (antibody, V domains shown, also called IgG 30D8; 30D8 Mab) VH: EVQLLQSGAELKKPGASVKISCKTSGFTFSGHTIAWVRQAPGQGLEWMGWVSTNNGNTEYAQKIQGRVTMTMDTSTSTVYMELRSLTSDDTAVYFCAREWLVMGGFAFDHWGQGTLLTVSS VL: QSVLTQASSVSVAPGQTARITCGANNIGSQNVHWYQQKPGQAPVLVVYDDRDRPSGIPDRFSGSNSGNTATLTISRVEAGDEADYYCQVWDSSRDQAVIFGGGTKLTVLG : ED50, plaque reduction, RSV B-1 is 0.055

What the record says about IgG form of 56E11 (antibody, V domains shown) VH: EVQLQESGPGLVKPSETLSLTCSVSGVSINSNNYFWAWIRQPPGKGLEWIGNIYYGGSTHYNASLQSRVTISVDTSKSQFSLKLNSVTSADTAVYYCAASESIFWDYYYGLDVWGQGTTVTVSS VL: QAVLTQPPSASGSPGQSVTISCTGTSSDVGGYNYVSWYQQHPGKAPRLIISEVTKRPSGVPGRFSGSKSGNTASLTVSGLQAEDEADYYCSSYAGSRHVVFGGGTKLTVLG : ED50, plaque reduction, RSV B-1 is 0.295
